Listing of entries alongside the reported self-cleavage.
B1: CPEB3 Ribozyme (parent)
chain: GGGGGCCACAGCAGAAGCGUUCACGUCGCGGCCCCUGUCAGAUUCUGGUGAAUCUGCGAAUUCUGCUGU

Variants of: B1
Experiment: self-cleavage, relative activity (ratio to wild type); higher = more cleavage; co-transcriptional
result type: self-cleavage

residue change | result type | value
G2C A10U | self-cleavage | 0.0719
U20C A52U | self-cleavage | 0.109
U20A U53A | self-cleavage | 0.0892
G11A A13U | self-cleavage | 0.186
U20C C45A | self-cleavage | 0.219
A13U U55A | self-cleavage | 0.246
U43C A52C | self-cleavage | 0.968
G3C U55C | self-cleavage | 0.0498
G3A A15C | self-cleavage | 0.308
C7G C9A | self-cleavage | 0.898
A16U G37U | self-cleavage | 0.173
U36G G47A | self-cleavage | 0.252
G19C G65C | self-cleavage | 0.12
C35G C66A | self-cleavage | 0.308
A42U U67G | self-cleavage | 0.951
A13U G68U | self-cleavage | 0.886
A13C A51G | self-cleavage | 0.903
A13G G37C | self-cleavage | 0.109
G4U G5U | self-cleavage | 0.0723
G2U U44A | self-cleavage | 0.0745
G5A U44G | self-cleavage | 0.631
G17C G28A | self-cleavage | 0.127
A23C A52U | self-cleavage | 0.917
U43A G56U | self-cleavage | 0.427
G50C C54G | self-cleavage | 0.654
G47C U53G | self-cleavage | 0.911
C7G U44G | self-cleavage | 0.252
G1C A59C | self-cleavage | 0.27
U44A U55A | self-cleavage | 0.566
G17C C35A | self-cleavage | 0.135
G31A U46A | self-cleavage | 0.866
C34G G48C | self-cleavage | 0.722
C35A U53G | self-cleavage | 0.24
G1A C22U | self-cleavage | 0.0977
U49C C57A | self-cleavage | 0.216
U43G U46C | self-cleavage | 0.677
U49C G58A | self-cleavage | 0.911
A51U U67C | self-cleavage | 1.01
C63A G65U | self-cleavage | 0.789
C12G C29U | self-cleavage | 0.137
C7G A15G | self-cleavage | 0.248
C18G C54A | self-cleavage | 0.186
C24A C33U | self-cleavage | 0.761
G5C C32G | self-cleavage | 0.968
G25C U36G | self-cleavage | 0.217
G14C U55A | self-cleavage | 0.22

Data provenance: the RNAGym collection of RNA variant scans (doi:10.7554/elife.80360)
